The entries below come with measured kon values attached.
Target: T1, SARS-CoV-2 S2 (aa686-1208) (Wuhan) (SARS-CoV-2 Wuhan, UniProt P0DTC2 686-1208)
T1 construct: NRC; FLAG, 6xHis tags
Experiment: SPR, antigen on chip

Binder	kon / M⁻¹ s⁻¹
NRCoV2-MRed19 VHH (VHH) VHH: EVQLVESGGGLVQPGGSLRLSCAASTIIFKGQTMGWFRQAPGNERELVATMTTSGSANYADSVKGRFTISRDNEKTVTLQMNSLKPEDTALYYCYMHSVYYGIDYWGKGTQVTVSS	102000
NRCoV2-MRed11 VHH (VHH) VHH: EVQLVESGGGLVQAGGSLRLSCAASGFTFSSYAMSWHRQAPGKGLEWVSAINSGGGSTSYADSVKGRFAISRDNAKNTLYLQMNSLKPEDTAVYYCATTISDGSSWSTKSYRGQGTQVTVSS	40900
NRCoV2-MRed25 VHH (VHH) VHH: EVQLVESGGGLVQAGGSLRLSCAASGHTFSRYGMGWFRQAPGKEREFVAAISWRGDSTYYRDSVNGRFTISRDNAKNTVYLGMNSLKPEDTAVYYCAAEMWGTATIVASRYTYWGQGTQVTVSS	122000
NRCoV2-MRed22 VHH (VHH) VHH: EVQLVESGGGLVQPGGSLRLSCAASGSVFASNAMGWYRQAPGKQRELVATISSRGSTNYADSVKGRFTISRDNAKNTVYLQMNSLGPEDTAVYYCNAREFTGFDYWGQGTQVTVSS	270000
NRCoV2-MRed18 VHH (VHH) VHH: EVQLVESGGGLVQPGGSLRLSCAASTTVFGRNAMGWYRQAPGKERELVATVSDGGTPNYADSVKGRFTISRDNAKNTIYLQMNSLEPEDTAVYYCNYYNYYYGRNFWGQGTQVTVSS	152000
NRCoV2-MRed20 VHH (VHH) VHH: EVQLVESGGGSVQAGGSLRLSCAASGLSFSSYDMGWFRQAPGKEREFVAAIRESGSGTYYADSVKGRFTISRDNAKNTVYLQVSSLKPEDTAVYTCAAKPPFYGSGTYSTPRAYLYWGQGTQVTVSS	113000
